FYI, the data here is from ChEMBL document CHEMBL1201862.

system: MCF7; assay: NCI tumour cell line growth inhibition, 48 h
Active and inactive are the calls of the source. No stated cut-off is given here; in the data, active = GI50 up to about 1.1 µM and inactive = higher.
recorded-endpoint: GI50

| compound | recorded-endpoint | endpoint-result |
| --- | --- | --- |
| CC[C@@H]1CC[C@@H]2[C@H](CC[C@]3(C)[C@@H](O)CC[C@@H]23)[C@H]1C(=O)O | GI50 | > 100 µM (inactive) |

Problem: Please state recorded GI50 (tested on MCF7) of O=C1Cc2c(-c3ccc(Cl)cc3)cc(-c3ccccc3)nc2-c2ccccc2N1
Result: 9.16 µM (inactive)

Problem: Reported GI50 for MCF7, given COc1ccccc1CC(=O)C(O)(C(F)(F)F)C(F)(F)F ?
Result: > 100 µM (inactive)

Problem: Please state recorded GI50 (tested on MCF7) of Cc1c(Cl)cccc1NC(=O)/C=C/c1ccccc1
Result: > 100 µM (inactive)

Problem: Query the reported GI50 for MCF7; item: Cc1cc(C)c(S(=O)(=O)N2CCCN(S(=O)(=O)c3c(C)cc(C)cc3C)OCCCON(S(=O)(=O)c3c(C)cc(C)cc3C)CCCN(S(=O)(=O)c3c(C)cc(C)cc3C)OCCCO2)c(C)c1
Result: > 100 µM (inactive)

Problem: Find GI50 (MCF7) for the entry N#CC(NNC(=O)Cc1ccccc1)c1ccccc1O (configuration not stated)
Result: 10.2 µM (inactive)

Problem: Given the entry CO[C@]12CC(=O)C3(C(C[C@H]4CC5CC[C@H]6C[C@@H](OC(C)=O)CC[C@]6(OC(C)=O)C5C[C@@]43C)C1)C1C[C@H]3[C@@H]4CC[C@H]5C[C@@H](OC(C)=O)CC[C@]5(OC(C)=O)[C@H]4CC[C@]3(C)C12 (some centres not stated) , what GI50 was observed with MCF7?
Result: 80.5 µM (inactive)
